Attribution: BindingDB's records for doi:10.1007/s002100000327

target: Delta-type opioid receptor (Homo sapiens)
Sequence (P41143 whole entry): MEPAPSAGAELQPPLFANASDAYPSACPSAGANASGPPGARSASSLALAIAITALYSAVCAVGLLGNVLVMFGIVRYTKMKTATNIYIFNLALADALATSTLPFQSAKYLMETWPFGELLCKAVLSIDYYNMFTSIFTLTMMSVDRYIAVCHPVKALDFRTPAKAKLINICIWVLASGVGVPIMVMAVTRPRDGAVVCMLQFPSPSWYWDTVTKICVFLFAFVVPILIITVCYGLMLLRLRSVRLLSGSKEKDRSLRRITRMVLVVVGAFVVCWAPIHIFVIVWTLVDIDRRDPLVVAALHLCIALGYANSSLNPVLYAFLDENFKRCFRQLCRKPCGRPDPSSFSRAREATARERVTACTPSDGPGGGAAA
test-readout: Ki (nM)
Number only, in nM; omit the unit.

Q. Give measured Ki for CC(=O)N[C@@H](CCCN=C(N)N)C(=O)N[C@H](CC1CCCCC1)C(=O)N[C@H]1CC[C@@H]2SC[C@@H](C(=O)N[C@H](CCCN=C(N)N)C(=O)N[C@H](Cc3ccc(Cl)cc3)C(N)=O)N2C1=O (Delta-type opioid receptor (Homo sapiens)).
A. 60.3
